Where these numbers come from: patent US20240218054A1

target: T1, recombinant YFV E protein (soluble E, sE; YFV Asibi strain) (Yellow fever virus, Asibi strain, UniProt Q6DV88 286-678); test: BLI monovalent (IgG on tip)
T1 construct: also called YFV E antigen; YFV E monomer
T1 sequence (Q6DV88 286-678): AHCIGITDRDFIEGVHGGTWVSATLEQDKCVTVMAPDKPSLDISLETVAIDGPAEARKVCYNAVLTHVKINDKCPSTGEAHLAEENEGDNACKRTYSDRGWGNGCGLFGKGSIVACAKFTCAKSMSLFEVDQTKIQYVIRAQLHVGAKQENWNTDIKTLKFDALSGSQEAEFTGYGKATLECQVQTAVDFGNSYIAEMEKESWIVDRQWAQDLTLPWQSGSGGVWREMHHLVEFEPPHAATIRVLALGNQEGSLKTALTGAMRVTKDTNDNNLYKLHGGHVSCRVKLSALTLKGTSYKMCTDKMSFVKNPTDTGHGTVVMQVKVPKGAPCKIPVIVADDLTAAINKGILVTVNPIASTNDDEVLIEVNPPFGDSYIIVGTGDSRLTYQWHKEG
measurement type: pKd
// scale note: pKd = -log10(conc_M); give the bare number

Task: // returns reported pKd for input ADI-42216 (antibody, V domains shown, full-length IgG; also called Antibody Number 112) VH: QVTLKESGPVLVKPTETLTLTCTVSGFSLSNTKMGVTWIRQPPGKALEWLAHIFSNDEKSCNTSLKSRLTISKDTSKSQVVLTMTNMDPVDTATYYCARLWFTEYPGAFDIWGQGTMVTVSS VL: QAVVTQPPSASGSPGQSVTISCTGTSSDVGGYNYVSWYQQHPGKAPKLMVYEVTKRPSGVPDRFSGSKSGNAASLTVSGLQAEDEAEYYCSSYAGSNALVFSGGTKLTVL
Output: 7.94
